- Test system: MST2;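 note: KINOMEscan kinase panel screen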
- Construct: gene STK3
- assay context: concentration: 1 μM,replicates: in singlicate; n = 1
// NB: equality with 20% counts as 0.0; only %Inh strictly below is 1.0

Problem: I'd appreciate it if you could check whether `COC(=O)c1cccc(NC(=O)NC2CCN(c3ccnc(NCc4ccc(F)cc4)n3)CC2)c1` has %Inh smaller than 20%.
Solution: 1.0

Problem: In plain terms, does `C[C@@H](Oc1cc(-n2cnc3cc(-c4ccncc4)ccc32)sc1C(N)=O)c1ccccc1Cl` come in under 20% for %Inh?
Solution: 0.0

Problem: Is %Inh strictly under 20% for the entry `CCN1CCN(CCCC(=O)Nc2n[nH]c3nc(-c4ccc(O)cc4)c(Br)cc23)CC1` ?
Solution: 0.0

Problem: Find out if reported %Inh for CC(C(=O)NC1CCN(c2ccnc(Nc3ccc(F)cc3)n2)C1)c1ccc(Cl)cc1 (stereo not shown) is less than 20%
Solution: 1.0

Problem: Decide: %Inh of `Cn1ccc2ncnc(Oc3ccc(NC(=O)Nc4cccc(C(F)(F)F)c4)c(Cl)c3)c21` strictly below 20%?
Solution: 0.0

Problem: In plain terms, does `O=C(Nc1ccc(Oc2ccc3nc(NC(=O)C4CC4)cn3n2)c(F)c1)c1cccn(-c2ccccc2)c1=O` come in under 20% for %Inh?
Solution: 1.0

Problem: Criterion: %Inh strictly below 20%. Is it met by `CN1CCN(CCCNc2nccc(-c3c(-c4ccc(F)cc4)nn4cc(C(N)=O)ccc34)n2)CC1` ?
Solution: 1.0

Problem: I'd appreciate it if you could check whether CS(=O)c1ccc(-c2coc3ccc(-c4n[nH]c(=O)o4)cc23)cc1 (stereo not shown) has %Inh smaller than 20%.
Solution: 1.0

Problem: Please state whether %Inh is below 20% for `Cn1ccc2ncnc(Oc3ccc(NC(=O)Nc4cc(C(C)(C)C)on4)c(Cl)c3)c21`
Solution: 1.0

Problem: Does the reported %Inh of the following compound sit strictly below 20%? `CCn1c(-c2nonc2N)nc2cncc(CNC3CCNCC3)c21.Cl`
Solution: 1.0

Problem: Please determine if `CS(=O)(=O)c1cccc(CNc2nc(Nc3ccc4c(c3)[C@@H]3C[C@@H]4CNC3=O)ncc2C(F)(F)F)c1` is below 20% in terms of %Inh.
Solution: 1.0

Problem: Does the reported %Inh of the following compound sit strictly below 20%? `O=C(NCC1CC1)c1ccc(-c2cc(C(=O)NC3CC3)ccc2F)cc1`
Solution: 1.0

Problem: Lab log: compare recorded %Inh with 20%; is it strictly lower for `C[C@@H](Oc1cc(-n2cnc3cc(-c4cnn(C)c4)ccc32)sc1C(N)=O)c1ccccc1Cl` ?
Solution: 0.0

Problem: Given the entry `Cc1cccc(-c2nc(Nc3ccncc3)c3sccc3n2)n1` , would its reported %Inh be below 20%?
Solution: 1.0

Problem: Report whether reported %Inh is lower than 20% (strictly) for `O=C(Nc1cccc(Oc2ccc3nccn3n2)c1)Nc1cccc(C(F)(F)F)c1`
Solution: 1.0

Problem: Does this compound meet the criterion %Inh < 20%? `CC(C)c1nc(-c2cccc(NS(=O)(=O)c3ccccc3)c2)c(-c2ccnc(Nc3ccc4c(c3)CN(C)CC4)n2)s1`
Solution: 0.0

Problem: Here's an entry: `Cc1ccn2nc(-c3ccc(F)cc3)c(-c3ccncc3)c2c1.Cl` . Is its %Inh below 20%?
Solution: 1.0

Problem: is_below(%Inh, 20%) for `CCCC(=O)Nc1n[nH]c2ncccc12` ?
Solution: 1.0

Problem: Please let me know if `C[C@@H]1CCN(C(=O)N2CCCC2)C[C@@H]1N(C)c1ncnc2[nH]ccc12` shows %Inh below 20%.
Solution: 0.0

Problem: Is 20% strictly greater than the compound's reported %Inh? compound: `CC(C)S(=O)(=O)N1CCN(Cc2ccc3c(c2)nc(NC(=O)c2ccsc2)n3C[C@H](O)c2ccccc2)CC1`
Solution: 1.0

Problem: Identify whether the compound `C[C@@H](Oc1cc(-n2cnc3ccc(-c4ccncc4)cc32)sc1C(N)=O)c1ccccc1Cl` records %Inh below 20%.
Solution: 0.0

Problem: %Inh strictly < 20% for this compound? `CSc1nccc(-c2c(-c3ccc(F)cc3)ncn2CCCN2CCOCC2)n1.Cl`
Solution: 1.0

Problem: Does this compound meet the criterion %Inh < 20%? `COc1cc2nccc(Nc3ccc(Oc4ccccc4)cc3)c2cc1OC.Cl`
Solution: 1.0

Problem: Strictly below 20% in %Inh? `COc1cccc(OC)c1C(=O)Nc1cccc(-c2nn3ccccc3c2-c2ccnc(Nc3cccc(F)c3)n2)c1`
Solution: 0.0

Problem: Threshold test, %Inh < 20%: `NC(=O)c1ccc(-c2cc3ncnc(SCC(=O)O)c3s2)cc1`
Solution: 1.0

Problem: Would you kindly verify if %Inh of `OCCn1cc(-c2cnc3nnn(Cc4ccc5ncccc5c4)c3n2)cn1` is strictly less than 20%?
Solution: 1.0

Problem: API: query returns whether the compound falls strictly under 20% in %Inh. Query: `CN(c1ccc2c(c1)nc(NCc1ccc(F)cc1)n2C)c1ccnc(Nc2ccc(CS(C)(=O)=O)cc2)n1.Cl`
Solution: 1.0

Problem: Here's an entry: `C[C@@H]1CNc2c(sc3ccc4nc(-c5ccncc5)ccc4c23)C(=O)N1` . Is its %Inh below 20%?
Solution: 1.0

Problem: Could you please tell me whether %Inh recorded for `O=C(Nc1n[nH]c2cc(-c3ccco3)ccc12)C1CC1` is less than 20%?
Solution: 1.0

Problem: Please check: %Inh for `O=C(Nc1ccccc1)c1cccc(Oc2ccc3nccn3n2)c1` , strictly under 20% or not?
Solution: 1.0

Problem: is_below(%Inh, 20%) for `Cl.Cl.NC[C@H](CC1CCCCC1)NC(=O)c1ccc(-c2ccnc3[nH]ccc23)s1` ?
Solution: 1.0

Problem: Record `Cl.c1ccc(Oc2ccc(Nc3ccnc4cc(-c5ccc(CN6CCNCC6)o5)ccc34)cc2)nc1` : is its %Inh strictly below 20%?
Solution: 0.0

Problem: Consider `CN1CCN(CCNc2nc3cc(Oc4ccc(NC(=O)Nc5cc(C(F)(F)F)ccc5F)cc4)ccc3[nH]2)CC1.Cl.Cl` . Does its %Inh lie strictly below 20%?
Solution: 1.0

Problem: Does the reported %Inh of the following compound sit strictly below 20%? `CN(c1ccccc1CNc1nc(Nc2ccc3c(c2)CC(=O)N3)ncc1C(F)(F)F)S(C)(=O)=O`
Solution: 0.0
